Data provenance is ChEMBL document CHEMBL4689842.

Exercise: state measured Population Tubulin-Different-Phenotype (%) for each of the molecules provided.
- Test system: Fibroblast
- ASSAY COMMENT: Multiplex assay against human fibroblast
- Type: toxicity, cell-based
- CONDITIONS USED: 12 h, 10 µM, compound concentration 10 uM, replicate 1
Give bare numbers, in %.

The examples below pair each entry with its known result.
[
  {
    "MOLECULE": "c1ccc2oc(-c3csc(C4CCN(Cc5nc6ncccc6[nH]5)CC4)n3)cc2c1",
    "TARGET OR TEST SYSTEM": "Fibroblast",
    "READOUT VALUE": 4
  },
  {
    "MOLECULE": "CCOc1cc2ncc(C#N)c(Nc3ccc(OCc4cccc(F)c4)c(Cl)c3)c2cc1NC(=O)/C=C/CN(C)C [HKI-357]",
    "TARGET OR TEST SYSTEM": "Fibroblast",
    "READOUT VALUE": 46
  },
  {
    "MOLECULE": "CC(C)N1CCC(C)(C)c2cc(C#Cc3ccc(C(=O)O)cc3)ccc21",
    "TARGET OR TEST SYSTEM": "Fibroblast",
    "READOUT VALUE": 7
  },
  {
    "MOLECULE": "CCC(=O)O[C@]1(C(=O)SCF)[C@H](C)C[C@H]2[C@@H]3C[C@H](F)C4=CC(=O)C=C[C@]4(C)[C@@]3(F)[C@@H](O)C[C@@]21C [FLUTICASONE PROPIONATE]",
    "TARGET OR TEST SYSTEM": "Fibroblast",
    "READOUT VALUE": 53
  },
  {
    "MOLECULE": "Cl.Cl.Nc1ncnc2c1c(-c1cccc(OCc3ccccc3)c1)cn2[C@H]1C[C@@H](CN2CCC2)C1",
    "TARGET OR TEST SYSTEM": "Fibroblast",
    "READOUT VALUE": 77
  },
  {
    "MOLECULE": "N#Cc1cnc(Nc2cc(NC[C@H]3CNCCO3)c(C(F)(F)F)cn2)cn1 [SRA-737]",
    "TARGET OR TEST SYSTEM": "Fibroblast",
    "READOUT VALUE": 8
  },
  {
    "MOLECULE": "CCn1c(-c2nonc2N)nc2cnc(Oc3cccc(NC(=O)c4ccc(OCCN5CCOCC5)cc4)c3)cc21 [GSK-269962A]",
    "TARGET OR TEST SYSTEM": "Fibroblast",
    "READOUT VALUE": 83
  },
  {
    "MOLECULE": "CNC(=O)c1cc(Oc2ccc(NC(=O)Nc3cc(C(C)(C)C)nn3-c3ccc4ncccc4c3)c(F)c2)ccn1 [REBASTINIB]",
    "TARGET OR TEST SYSTEM": "Fibroblast",
    "READOUT VALUE": 44
  },
  {
    "MOLECULE": "CC(=O)c1cc(-c2cc(C(=O)NC3CC3)ccc2C)c2ncccn12",
    "TARGET OR TEST SYSTEM": "Fibroblast",
    "READOUT VALUE": 50
  },
  {
    "MOLECULE": "Cl.Cl.NC1(c2ccc(-c3nc4ccn5c(=O)[nH]nc5c4cc3-c3ccccc3)cc2)CCC1",
    "TARGET OR TEST SYSTEM": "Fibroblast",
    "READOUT VALUE": 42
  }
]

Please supply Population Tubulin-Different-Phenotype (%) for each of the following items, keeping them in order.
1. CCOc1cc(N2CCC(O)CC2)ccc1Nc1ncc2c(n1)N(C1CCCC1)CCC(=O)N2C
2. COc1cc2c(Nc3ccc(NC(=O)c4ccccc4)cc3)ncnc2cc1OCCCN1CCOCC1
3. CCc1cc2c(cc1CC)CC(NC[C@H](O)c1ccc(O)c3[nH]c(=O)ccc13)C2 [INDACATEROL]
4. CN(C)C/C=C/C(=O)Nc1cc2c(Nc3ccc(F)c(Cl)c3)ncnc2cc1O[C@H]1CCOC1.O=C(O)/C=C\C(=O)O.O=C(O)/C=C\C(=O)O [AFATINIB DIMALEATE]
5. COc1cc2c(NC3CCN(C(C)C)CC3)nc(N3CCC(F)(F)CC3)nc2cc1OCCCN1CCCC1
6. CC(C)(C)c1cnc(CSc2cnc(NC(=O)C3CCNCC3)s2)o1 [BMS-387032]
7. Nc1ccc(C(=O)Nc2cccc(-c3nc(N4CCOCC4)c4oc5ncccc5c4n3)c2)cn1
8. Cc1nc(Cc2cccc(C(F)(F)F)c2)sc1-c1ccc(C(N)=O)nc1 [TP-024n]

-- reply
1: 1; 2: 4; 3: 74; 4: 68; 5: 35; 6: 32; 7: 80; 8: 67

Return reported Population Tubulin-Different-Phenotype (%) values for all items listed beneath this line.
1. CN(C)CCOc1ccc(-c2nc(-c3ccncc3)c(-c3ccc4c(c3)CC/C4=N\O)[nH]2)cc1 [SB590885]
2. Cc1cn(-c2cc(NC(=O)c3ccc4c(c3)CN(c3cncnc3)C[C@@H]4C)cc(C(F)(F)F)c2)cn1
3. O=C(O)c1ccc2cc(-c3ccc(O)c(C45CC6CC(CC(C6)C4)C5)c3)ccc2c1 [O-DEMETHYLATED ADAPALENE]
4. CCCn1c(=O)c2[nH]c(C34CC5CC(CC3C5)C4)nc2n(CCC)c1=O [ROLOFYLLINE]
5. Nc1nc2c(c(N3CCNCC3)n1)CCC1=C2[C@@H]2CCCC[C@@H]2O1

-- reply
1: 13; 2: 23; 3: 33; 4: 88; 5: 52

----------
Kindly supply the reported Population Pyknosed Nuclei (%) values for the records listed here.
- Tested on: HEK-293T
- ASSAY COMMENT: Multiplex assay against HEK293T
- Assay type: toxicity, cell-based
- CONDITIONS USED: human, 48 h, 10 µM, compound concentration 10 uM, replicate 1
Numbers only, in %.

Record excerpt, results attached:
[
  {
    "COMPOUND": "Nc1ccc(C(=O)Nc2cccc(-c3nc(N4CCOCC4)c4oc5ncccc5c4n3)c2)cn1",
    "Population Pyknosed Nuclei (%)": 38
  },
  {
    "COMPOUND": "CCn1c(-c2nonc2N)nc2cnc(Oc3cccc(NC(=O)c4ccc(OCCN5CCOCC5)cc4)c3)cc21 [GSK-269962A]",
    "Population Pyknosed Nuclei (%)": 41
  },
  {
    "COMPOUND": "O=C(O)c1ccc2cc(-c3ccc(O)c(C45CC6CC(CC(C6)C4)C5)c3)ccc2c1",
    "Population Pyknosed Nuclei (%)": 48
  },
  {
    "COMPOUND": "CNc1oc(-c2cccc3ccccc23)nc1C#N",
    "Population Pyknosed Nuclei (%)": 1
  }
]

Go through the items and report each one's Population Pyknosed Nuclei (%).
1. CC(C)N1CCC(C)(C)c2cc(C#Cc3ccc(C(=O)O)cc3)ccc21
2. C1=N/C2=N/c3ccc(OCCN4CCCC4)c(c3)COC/C=C\COCc3cccc(c3)C(=C1)N2
3. CCc1cc2c(cc1CC)CC(NC[C@H](O)c1ccc(O)c3[nH]c(=O)ccc13)C2
4. CC(=O)c1cc(-c2cc(C(=O)NC3CC3)ccc2C)c2ncccn12

-- reply
3
62
67
51

Hi team, please reply with Population Pyknosed Nuclei (%) for each item in this list.
1. CCCn1c(=O)c2[nH]c(C34CC5CC(CC3C5)C4)nc2n(CCC)c1=O
2. CCC(=O)O[C@]1(C(=O)SCF)[C@H](C)C[C@H]2[C@@H]3C[C@H](F)C4=CC(=O)C=C[C@]4(C)[C@@]3(F)[C@@H](O)C[C@@]21C [FLUTICASONE PROPIONATE]
3. COc1ccc(NS(=O)(=O)c2sc3ccc(Cl)cc3c2C)cc1N1CCNCC1.Cl
4. Cl.Cl.Nc1ncnc2c1c(-c1cccc(OCc3ccccc3)c1)cn2[C@H]1C[C@@H](CN2CCC2)C1
5. Cc1nc(Cc2cccc(C(F)(F)F)c2)sc1-c1ccc(C(N)=O)nc1 [TP-024n]

-- reply
1. 50
2. 33
3. 47
4. 73
5. 53

----------
Field: Population Normal (%). Provide a value for each of the molecules that follow.
- Test system: HEK-293T
- ASSAY COMMENT: Multiplex assay against HEK293T
- Type: toxicity, cell-based
- CONDITIONS USED: human, 12 h, 1 µM, compound concentration 1 uM, replicate 2
One number for each entry, in %.

[
  {
    "SMILES ENTRY": "COc1cc(N2CCC(N(C)C)CC2)ccc1Nc1ncc(Cl)c(Nc2ccccc2P(C)(C)=O)n1",
    "Population Normal (%)": 94
  },
  {
    "SMILES ENTRY": "Cl.Cl.Nc1ncnc2c1c(-c1cccc(OCc3ccccc3)c1)cn2[C@H]1C[C@@H](CN2CCC2)C1",
    "Population Normal (%)": 89
  }
]

State the recorded Population Normal (%) for every item in the following list.
1. Nc1nc2c(c(N3CCNCC3)n1)CCC1=C2[C@@H]2CCCC[C@@H]2O1
2. CCOc1cc(N2CCC(O)CC2)ccc1Nc1ncc2c(n1)N(C1CCCC1)CCC(=O)N2C
3. CNC(=O)c1nn(C)c2c1C(C)(C)Cc1cnc(Nc3ccc(N4CCN(C)CC4)cc3)nc1-2
4. CCc1cc2c(cc1CC)CC(NC[C@H](O)c1ccc(O)c3[nH]c(=O)ccc13)C2

-- reply
95
97
90
96
